- assay_method_text: Partition coefficient, log P of the compound
- Assay type: physicochemical
- condition_notes: octanol/water
I'd appreciate it if you could supply logP values for the items below.

| chemical_structure | result |
| --- | --- |
| Clc1ccc2c(c1)Nc1cccc3ccnc-2c13 | 3.69 |

Below: the item to evaluate.
Exercise: Value lookup for logP; key = CCOc1ccc2c3c(nccc13)-c1ccc(N)cc1N2
Key: 2.62

* * *

I'd appreciate it if you could supply pKa values for the items below.
- assay_method_text: Dissociation constant, pKa at physiological pH
- Type: physicochemical
One number for each entry.

| chemical_structure | readout_number |
| --- | --- |
| Clc1ccc2c(c1)Nc1cccc3ccnc-2c13 | 4.5 |

Below: the item to evaluate.
Exercise: Value lookup for pKa; key = CCOc1ccc2c3c(nccc13)-c1ccc(N)cc1N2
Key: 5.3
